Taken from patent US9926281B2.

Biological target: human TACE (Homo sapiens (Human), UniProt P78536)
Sequence (P78536 whole entry, looked up, change not shown): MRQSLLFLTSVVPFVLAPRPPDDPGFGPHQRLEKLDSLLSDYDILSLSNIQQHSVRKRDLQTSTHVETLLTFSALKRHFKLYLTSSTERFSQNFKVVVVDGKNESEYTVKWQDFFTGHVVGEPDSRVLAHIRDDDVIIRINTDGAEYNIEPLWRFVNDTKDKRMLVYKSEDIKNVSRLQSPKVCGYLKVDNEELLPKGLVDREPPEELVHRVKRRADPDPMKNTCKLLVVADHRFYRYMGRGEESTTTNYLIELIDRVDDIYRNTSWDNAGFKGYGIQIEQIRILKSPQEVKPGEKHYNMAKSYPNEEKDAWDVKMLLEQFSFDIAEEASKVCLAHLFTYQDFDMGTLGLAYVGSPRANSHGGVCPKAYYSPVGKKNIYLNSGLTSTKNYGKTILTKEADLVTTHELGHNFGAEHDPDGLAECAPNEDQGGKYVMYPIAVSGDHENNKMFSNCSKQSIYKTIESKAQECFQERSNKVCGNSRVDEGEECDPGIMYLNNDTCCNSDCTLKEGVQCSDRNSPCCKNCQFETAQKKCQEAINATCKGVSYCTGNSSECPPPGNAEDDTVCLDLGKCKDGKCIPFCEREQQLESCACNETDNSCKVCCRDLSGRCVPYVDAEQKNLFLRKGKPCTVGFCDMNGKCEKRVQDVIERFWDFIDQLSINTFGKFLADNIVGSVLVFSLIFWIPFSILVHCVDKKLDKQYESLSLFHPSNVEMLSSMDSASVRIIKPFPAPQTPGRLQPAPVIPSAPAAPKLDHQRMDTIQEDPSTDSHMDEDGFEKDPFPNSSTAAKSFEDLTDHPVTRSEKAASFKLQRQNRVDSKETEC
Settings: read-out: TACE potency IC50
READOUT KIND: IC50

Recorded results for 2 molecules are shown here.
C[C@@H]1CN(C(=O)CCC2(c3cccnc3)NC(=O)NC2=O)CCN1c1ccccc1 (stereo partly shown) = > 20 µM
CC(CC1(C2CCOCC2)NC(=O)NC1=O)C(=O)N1CCN(c2cc(Cl)cc(Cl)c2)CC1 (stereo not shown) = 1.05 µM

Give measured IC50 for every item shown.
1. C[C@H]1CN(C(=O)CCC2(C3CC3)NC(=O)NC2=O)CCN1c1cc(F)cc(C#N)c1 (stereo partly shown)
2. Cc1cccc(N2CCN(C(=O)CCC3(c4ccccc4)NC(=O)NC3=O)CC2)c1C (stereo not shown)

RESULT:
["> 20 µM", "> 3.22 µM"]
